system: OVCAR-3 ovarian; test: NCI-60 one-dose screen, 48 h (100 = growth as untreated, 0 = no growth, -100 = all killed); details: 10 µM unless noted
This is part of a sample that, as a whole, favours compounds with a hit. Of some 83,000 tested, about 20% had one in any assay. Activity calls are given as the source filed them. Rule for the calls: active = growth percent below 10; inactive = the rest.
MEASURED QUANTITY: growth

Completed entries (count: 2):
MOLECULE	growth
O=[N+]([O-])c1ccc(Oc2nc(Nc3ccc(O[C@H]4CO[C@H]5[C@@H]4OC[C@@H]5O)c(Cl)c3)ncc2F)c(Cl)c1	31.1% (inactive)
N#C/C(=C\c1cccc2cnccc12)n1nnc2cccc(F)c21	35.3% (inactive)

q: Output growth of CNC(C)[C@H]1CCC2C3CCC4C[C@@H](N(C)C(=O)c5ccccc5)CC[C@]4(C)C3CC[C@@]21C (stereo partly specified)
a: 9.46% (active)

q: Output growth of CCc1cccc2c1S/C(=C/c1ccc(Cl)cc1)C2=O
a: 104% (inactive)

---

test system: DU-145 prostate; test: NCI-60 one-dose screen, 48 h (100 = growth as untreated, 0 = no growth, -100 = all killed); conditions: 10 µM unless noted
Compounds without any hit were thinned out: in the full panel of roughly 83,000, 20% have a hit.
Kind request: treat 90% as inclusive, so growth at 90% or higher is label 1, anything lower is label 0.

Some solved entries appear below for comparison.
COMPOUND	GROUP LABEL
CN1CCN(CC(=O)N2c3cccc4cccc(c34)N(C(=O)CN3CCN(C)CC3)C2c2cn(-c3ccccc3)nc2-c2cccc([N+](=O)[O-])c2)CC1	label 0
O=c1c2cc(F)cc(Cl)c2sc2c(NCCCNCCO)nc3ccccc3c12	label 0
COc1cccc(-c2nc(-c3ccc(NS(=O)(=O)c4ccccc4)cc3)[nH]c2-c2ccnc(Br)c2)c1	label 0
C[N+]1=C(/C=C/c2ccc(O)c3ncccc23)C(C)(C)c2ccccc21	label 0
Cc1ccc(-c2cnc3sc(C(=O)NCCc4ccccc4)c(C)n23)cc1	label 1
COc1ccc(NC2=C(Br)C(=O)C(C)=C(C)C2=O)cc1	label 1
N#Cc1c(-c2ccc(Cl)cc2)nc2c(c(-c3ccccc3)nn2-c2ccccc2)c1-c1ccc(O)cc1	label 0
CCOC(=O)/C(C#N)=C\Nc1ccc2ncnc(Nc3ccc(Cl)cc3Cl)c2c1	label 0
CCOC(=O)NCCc1ccccc1	label 1
C#C[C@]1(O)CC[C@H]2[C@@H]3CC=C4c5sc(Nc6cc(F)ccc6F)nc5CC[C@]4(C)[C@H]3CC[C@@]21C	label 0

q: Could you tell me if the measured growth of Cc1cccc2c3c(sc12)C(c1ccc(Cl)cc1)C(C#N)=C(/N=C/c1ccc(Cl)cc1)O3 (configuration not stated) reaches 90% or more?
a: label 0

---

tested on: NCI-H226 lung; experiment: NCI-60 one-dose screen, 48 h (100 = growth as untreated, 0 = no growth, -100 = all killed); settings: 10 µM unless noted
About 83,000 compounds went through this panel and 20% of them were active in at least one assay; those are over-represented in the sample as a whole.
Items are presented alongside their recorded growth.
Use % as the unit, but write only the number.

Completed entries (count: 4):
COMPOUND	MEASURED QUANTITY	OBSERVED RESULT
COc1ccc(/C=C(/C#N)n2nnc3cccc(F)c32)cc1	growth	60.4
CCOC(=O)C1=C(N)Oc2c(sc3c(CC)cccc23)C1c1ccc(F)cc1 (stereo not given)	growth	49.5
Cc1nc2cnc(N)c(C#Cc3cncc(C(=O)Nc4ccc(CN5CCN(C)CC5)c(C(F)(F)F)c4)c3)c2nc1C	growth	3.74
O=C(N/N=C/c1c(Cl)cccc1Cl)c1ccc(C(F)(F)F)nc1Nc1cccc(C(F)(F)F)c1	growth	14.2

Proceeding to the next compound to report its growth.
q: Output growth of CCc1ccc(Oc2c(-c3ccc(OCc4ccc(Cl)cc4)cc3O)n[nH]c2C(F)(F)F)cc1
a: 24.8

---

System: A549/ATCC NSCLC
Assay: NCI-60 one-dose screen, 48 h
Conditions: 10 µM unless noted
Method: Growth inhibition of the A549/ATCC human Non-Small Cell Lung tumor cell line is measured as a screen for anti-cancer activity. Cells are grown in 96 well plates and exposed to the test compound for 48 hours. Compounds are tested at a single concentration, which is 10^-5 M for most compounds. The reported endpoint is percent growth (GI% or GIPRCNT), where numbers from 0 - 100% represent growth inhibition, and numbers from -100% - 0 represent cell death. […]
The panel holds about 83,000 compounds, 20% with a hit somewhere; the sample as a whole holds those more often. The source made the active and inactive calls. The calls were made as follows: active = growth percent below 10; inactive = the rest.
The categories you may choose from are active, inactive

Some solved entries appear below for comparison.
COMPOUND	GROUP LABEL
NCCOc1ncccc1/C=C1\C2C=CC=CC2C2C=CC(F)=CC12 (stereo unspecified)	active
c1ccc(Cc2nn3cc(-c4ccccc4)nc3s2)cc1	inactive

Could you now consider this next compound?
q: I'd appreciate the recorded outcome for O=C(Nc1ccc(F)cc1F)c1cc(F)ccc1O from this test.
a: inactive

---

Items are presented alongside their recorded growth.
tested on: SW-620 colon; experiment: NCI-60 one-dose screen, 48 h (100 = growth as untreated, 0 = no growth, -100 = all killed); details: 10 µM unless noted
Compounds without any hit were thinned out: in the full panel of roughly 83,000, 20% have a hit. The source made the active and inactive calls. The calls were made as follows: active = growth percent below 10; inactive = the rest.

Completed entries (count: 2):
COMPOUND	OBSERVED RESULT
O=C1/C(=C/c2ccc(F)cc2)Sc2c(Br)cccc21	89.4% (inactive)
CCOC(=O)c1c2c(n(-c3ccc(C#N)cc3)c1-c1ccccc1)C=CCC2	96.9% (inactive)

q: Output growth of O=C(Nc1ccc(-c2nc(-c3cccc(OCCN4CCOCC4)c3)c(-c3ccnc(Br)c3)[nH]2)cc1)c1ccccc1
a: 2.49% (active)

q: Output growth of CCCCCCCCCCCCCCCCCCOc1ccccc1CCCOP(=O)(O)OCC[N+](C)(C)C
a: 69.2% (inactive)

---

system: HCT-116 colon; assay: NCI-60 one-dose screen, 48 h (100 = growth as untreated, 0 = no growth, -100 = all killed); conditions: 10 µM unless noted
About 83,000 compounds went through this panel and 20% of them were active in at least one assay; those are over-represented in the sample as a whole.
MEASURED QUANTITY: growth (%)
Use % as the unit, but write only the number.

MOLECULE	STUDY TARGET	growth (%)
N[C@@H](Cc1ccccc1)[C@@H](O)C(=O)NCc1ccc(F)cc1	HCT-116 colon	96.1
Cc1cc(=O)[nH]c(=O)n1Cc1cn(-c2c3ccccc3nc3ccccc23)nn1	HCT-116 colon	63.1
COC(=O)Nc1ccc(-c2nc(-c3cccc(OC)c3)c(-c3ccnc(Br)c3)[nH]2)cc1	HCT-116 colon	54.2
O=C1CN(CCN2CC(=O)N(Cc3ccccc3)C(=O)C2)CC(=O)N1Cc1ccccc1	HCT-116 colon	98.6

q: Output growth of COc1ccc(S(=O)(=O)n2c3ccccc3n3ncc(-c4nnc(C)o4)c23)cc1
a: 18.4

q: Output growth of Cc1ccc(C(=O)NN2C(=O)CSC2c2cccc([N+](=O)[O-])c2)cn1 (stereo not given)
a: 99.6

q: Output growth of Oc1ccc(-c2nc3ccc4[nH]ncc4c3c3c2CCCC3)c2cccnc12
a: 2.74

q: Output growth of Cc1ccc(/C=N\NC(=O)c2[nH]c3ccc(F)cc3c2-c2ccccc2)cc1
a: 10.8

q: Output growth of Cc1ccc(-c2nc(N3CCN(C(=O)Nc4ccc(Cl)c(C(F)(F)F)c4)CC3)c3ccccc3n2)cc1
a: 67.5

q: Output growth of COc1ccc(C(=O)C[C@]2(O)C(=O)Nc3c(Cl)ccc(Cl)c32)cc1
a: 17

---

test system: TK-10 renal; experiment: NCI-60 one-dose screen, 48 h; details: 10 µM unless noted
This is part of a sample that, as a whole, favours compounds with a hit. Of some 83,000 tested, about 20% had one in any assay. Calls of active or inactive are those of the source. How the source made its calls: active means growth percent below 10; inactive means the rest.
The categories you may choose from are active, inactive

Some solved entries appear below for comparison.
MOLECULE	GROUP LABEL
N#Cc1c(Nc2cccc(Cl)c2)sc(C(=O)c2cc3cc(Cl)ccc3o2)c1N	inactive
CCCCCCn1c(-c2ccc(C(=O)O/N=C(\N)c3ccc4ccccc4c3)cc2)nc(-c2ccccc2)c1-c1ccccc1	inactive
CC(C)OC(=O)Nc1ccc(-c2nc(-c3cccc(OCCN4CCOCC4)c3)c(-c3ccnc(Br)c3)[nH]2)cc1	inactive
Cn1cc(-c2cc3ncnc(Nc4ccc(CC(=O)Nc5cc(C(C)(C)C)on5)cc4)c3s2)cn1	inactive
CCOC(=O)c1c(C)nc2c(c1N)CC(=O)N2Cc1ccc(F)cc1	inactive
COC(=O)C(Cc1ccccc1)NC(=O)NC(=O)NC(=O)CI (stereo not given)	inactive
O=C(O)C(c1ccccc1)N1C(=O)CSC1=S (stereo not given)	inactive
CN(C)c1ccc(/C=N\Nc2cc(=O)[nH]c3ccc(Cl)cc23)cc1	inactive

q: I'd appreciate the recorded outcome for CNC(C)[C@H]1CCC2C3CCC4C[C@@H](N(C)C(=O)c5ccccc5)CC[C@]4(C)C3CC[C@@]21C (stereo not given in full) from this test.
a: inactive

q: I'd appreciate the recorded outcome for CCCCCCNC(=O)Oc1ccc(/C(=C(\C)c2ccc(Cl)cc2)c2ccc(OCCN(CC)CC)cc2)cc1 from this test.
a: inactive

q: I'd appreciate the recorded outcome for Nc1nc2ccccc2c2c(=O)c3cc(F)ccc3sc12 from this test.
a: inactive

q: I'd appreciate the recorded outcome for Cc1ccc(/C=N\NC(=O)c2[nH]c3ccc(F)cc3c2-c2ccccc2)cc1 from this test.
a: inactive

q: I'd appreciate the recorded outcome for C/C=C(\C)C(=O)N[C@H]1[C@@H](OC(C)=O)C[C@]2(C)C3CC[C@@]4(C)C(CC[C@@H]4C(C)N(C)C)C3CCC2[C@H]1O (stereo not given in full) from this test.
a: inactive

q: I'd appreciate the recorded outcome for Cc1nc2ccccc2c(/C=C/c2ccccc2)c1C(=O)/C=C/c1ccc(C(F)(F)F)cc1 from this test.
a: active

q: I'd appreciate the recorded outcome for CCCCCCCCCCCCCCCCCCOc1ccc(CC(=O)OCC[N+]2(C)CCCCC2)cc1 from this test.
a: inactive

q: I'd appreciate the recorded outcome for COc1ccc(CNC(=O)[C@H](O)[C@@H](N)Cc2ccccc2)cc1 from this test.
a: inactive

q: I'd appreciate the recorded outcome for CCN(CC)Cc1cc(Nc2c3ccc(Cl)cc3nc3ccc(OC)cc23)ccc1O from this test.
a: inactive

q: I'd appreciate the recorded outcome for Cc1ccc(-c2nc(N3CCN(CC(=O)Nc4ccc(Cl)cc4)CC3)c3ccccc3n2)cc1 from this test.
a: inactive

q: I'd appreciate the recorded outcome for Cc1[nH]c(C(=O)Nc2ccc(C(=O)NCCN)cc2OC(C)C)c(Cl)c1Cl from this test.
a: active

q: I'd appreciate the recorded outcome for C#Cc1cccc(NC(=O)Nc2ccccc2NC(=O)CCl)c1 from this test.
a: active
